Data origin, for the record: paper PMC3617668

Record form. Attribute: CC50 at 72 h. Fill in for each entry.
test: Mammalian cell toxicity, MTT, Vero cells; type: cell-based; settings: African green monkey, Vero cells, 72 h, MTT; read-out: Mammalian cells Vero CC50 ± SD
Express your answer in µM, writing the number without its unit.

Sample `O=C(CCl)NCCCCNC(=O)CCl` — what was its CC50 at 72 h?
37.1

Lookup `c1cc(CNCCNCc2ccncc2)ccn1`
356

Proceed to `O=C(CCl)NCCNC(=O)CCl`
25.7

Okay, and O=C1CSC(c2cccnc2)N1CCCCN1C(=O)CSC1c1cccnc1 (centres unmarked) ?
75.4

Another: `c1ccc(CNCCCCNCc2ccccn2)nc1`
132

Then this compound: O=C1CSC(c2ccccc2)N1CCN1C(=O)CSC1c1ccccc1 (centres unmarked)
171

Then `c1ccc(CNCCCNCc2ccccc2)cc1` ?
343

====

Experiment: Mammalian cell toxicity, MTT, THP-1 cells
Format: cell-based
Conditions: human, THP-1 cells transformed into adherent macrophages with PMA; 72 h, MTT; read-out: Mammalian cells THP-1 CC50 ± SD
Method: Vero cells and THP-1 cells transformed into adherent macrophages with PMA in 96 microwell plates where they were treated with compounds (0-350 μM) during 72 h at 37 °C, 5% CO2-95% air mixture. The viability of the cells was evaluated by using the tetrazolium-dye (MTT) colorimetric method. […] The samples were read using an ELISA plate reader at a wavelength of 580 nm. […] The data were calculated by linear regression using the software ([…]; GO Business Solution, Guildford, UK). […]
PROPERTY: CC50 at 72 h

I'd like to know its CC50 at 72 h. The molecule in question is `COc1ccc(CNCCCCNCc2ccc(OC)c(O)c2)cc1O`
248 µM

What would you report for O=C1CSC(c2ccccc2)N1CCCCN1C(=O)CSC1c1ccccc1 (centres unmarked) ?
> 250 µM

Please answer likewise for `O=C(CCl)NCCCCNC(=O)CCl`
366 µM

Thanks! And `c1ccc(CNCCNCc2ccccc2)cc1` ?
239 µM

Query `c1ccc(CNCCCNCc2ccccc2)cc1` next
169 µM

Param item: O=C1CSC(c2cccnc2)N1CCN1C(=O)CSC1c1cccnc1 (centres unmarked)
> 250 µM

Same lookup for O=C1CSC(c2ccccn2)N1CCCCN1C(=O)CSC1c1ccccn1 (centres unmarked) , please.
> 250 µM

Ok, now C[C@@H]1[C@H](O)[C@@H](C)/C=C/C=C/C=C/C=C/C=C/C=C/C=C/[C@H](O[C@@H]2O[C@H](C)[C@@H](O)[C@H](N)[C@@H]2O)C[C@@H]2O[C@](O)(C[C@@H](O)C[C@@H](O)[C@H](O)CC[C@@H](O)C[C@@H](O)CC(=O)O[C@H]1C)C[C@H](O)[C@H]2C(=O)O [AmB, Amphotericin B, reference compound]
13.3 µM

Okay, and `c1cncc(CNCCCCNCc2cccnc2)c1` ?
> 300 µM

`O=C(CCl)N(CCCCN(Cc1ccccc1)C(=O)CCl)Cc1ccccc1` , same question.
25.1 µM

Also need `c1ccc(CNCCCCNCc2ccccn2)nc1` , thanks.
> 300 µM

Same for `c1cc(CNCCNCc2ccncc2)ccn1`
> 413 µM

Try this molecule next: `O=C(CCl)NCCNC(=O)CCl`
> 300 µM

O=C1CSC(c2ccccc2)N1CCN1C(=O)CSC1c1ccccc1 (centres unmarked) ?
> 250 µM

Same again, this time with O=C1CSC(c2ccncc2)N1CCCCN1C(=O)CSC1c1ccncc1 (centres unmarked)
> 250 µM

Then O=C1CSC(c2cccnc2)N1CCCCN1C(=O)CSC1c1cccnc1 (centres unmarked) ?
> 250 µM

Similarly, O=C1CSC(c2ccncc2)N1CCN1C(=O)CSC1c1ccncc1 (centres unmarked) ?
> 250 µM

Continue with `O=C(CCl)NCCCNC(=O)CCl`
158 µM

Quick one: `COc1ccc(CNCCNCc2ccc(OC)c(O)c2)cc1O`
> 300 µM

Next molecule: O=C1CSC(c2ccccn2)N1CCN1C(=O)CSC1c1ccccn1 (centres unmarked)
> 250 µM

====

system: T. cruzi epimastigotes; assay: In vitro activity on T. cruzi epimastigotes, counting viable parasites; type: cell-based, Trypanosoma cruzi; details: selectivity index CC50/IC50
Please go through the items and note down their T. cruzi epimastigotes SI.

Which T. cruzi epimastigotes SI value is on record for O=C1CSC(c2cccnc2)N1CCN1C(=O)CSC1c1cccnc1 (stereo not drawn) ?
>1.0

Now the same for O=C1CSC(c2ccncc2)N1CCN1C(=O)CSC1c1ccncc1 (stereo not drawn)
>1.0

Then `c1ccc(CNCCCNCc2ccccc2)cc1` ?
64.2

What about O=C1CSC(c2ccccn2)N1CCN1C(=O)CSC1c1ccccn1 (stereo not drawn) ?
>1.60

Next record, please: O=C1CSC(c2ccccn2)N1CCCCN1C(=O)CSC1c1ccccn1 (stereo not drawn)
>1.0

What do you get for O=C1CSC(c2ccncc2)N1CCCCN1C(=O)CSC1c1ccncc1 (stereo not drawn) ?
>1.0
